Target: human JAK1 kinase domain (JH1) (Homo sapiens, UniProt P23458)
Construct: recombinantly generated catalytic kinase (also known as JH1) domain of human JAK1, JAK2, JAK3 and TYK2
Sequence (P23458 875-1153 limits assumed): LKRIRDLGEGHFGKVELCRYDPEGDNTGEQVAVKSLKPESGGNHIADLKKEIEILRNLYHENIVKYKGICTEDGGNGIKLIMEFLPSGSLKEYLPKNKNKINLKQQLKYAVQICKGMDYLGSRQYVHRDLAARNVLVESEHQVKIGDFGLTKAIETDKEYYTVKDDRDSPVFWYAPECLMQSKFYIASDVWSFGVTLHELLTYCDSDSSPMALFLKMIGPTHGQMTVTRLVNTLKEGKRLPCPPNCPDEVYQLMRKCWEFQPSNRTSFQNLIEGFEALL
Assay: JH1 biochemical assay for JAK1 (ADP-Glo kinase assay, recombinant JH1 catalytic domain, JAK3-342 peptide, 35 μM ATP)
Conditions: JH1 kinase domain, ADP-Glo
Where a name gives a salt, the structure may show the parent alone.
Give IC50 for every item shown.

Send back human JAK1 kinase domain (JH1) (Homo sapiens, UniProt P23458) IC50 of COC[C@]1(C#N)CCN(c2ccnn3cc(-c4cnn(C)c4)cc23)C1=O (single isomer, unassigned) only. > 10000 nM

Name the value of IC50 reported for CC[C@@H]1C[C@](C#N)(C2CC2)C(=O)N1c1ccnn2cc(-c3cnn(C)c3)cc12 when tested on human JAK1 kinase domain (JH1) (Homo sapiens, UniProt P23458). 5000 to 10000 nM

// fetch IC50; item: CC(=O)Nc1cc(-c2cc3c(N4C[C@@H](C)[C@@](C#N)(C5CC5)C4=O)ccnn3c2)ccn1 ; system: human JAK1 kinase domain (JH1) (Homo sapiens, UniProt P23458) < 100 nM

Please respond with reported IC50 (system human JAK1 kinase domain (JH1) (Homo sapiens, UniProt P23458)) for C[C@@H]1CN(c2ccnn3cc(-c4cnn(C5CC5(F)F)c4)cc23)C(=O)[C@]1(C#N)C1CC1 (mixture of isomers) . < 100 nM

State IC50 (human JAK1 kinase domain (JH1) (Homo sapiens, UniProt P23458)) of C[C@@H]1CN(c2ccnn3cc(-c4cccc5nccn45)cc23)C(=O)[C@]1(C#N)C1CC1 [Example 141, trifluoroacetate] . 1000 to 5000 nM

Please indicate recorded IC50 of C[C@@H]1CN(c2nc(-c3cnn(C(F)F)c3)cn3nccc23)C(=O)[C@]1(C#N)C1CC1 measured with human JAK1 kinase domain (JH1) (Homo sapiens, UniProt P23458). < 100 nM

Give IC50; test system human JAK1 kinase domain (JH1) (Homo sapiens, UniProt P23458); compound C[C@@H]1CN(c2ccnn3cc(-c4cncn4C)cc23)C(=O)[C@]1(C#N)C1CC1 1000 to 5000 nM

----------
So I've got a bunch of compounds here, and I need their IC50 values.
Target: JAK1 kinase activity on STAT3 in TF1 cells (Homo sapiens)
Sequence (P23458 whole entry): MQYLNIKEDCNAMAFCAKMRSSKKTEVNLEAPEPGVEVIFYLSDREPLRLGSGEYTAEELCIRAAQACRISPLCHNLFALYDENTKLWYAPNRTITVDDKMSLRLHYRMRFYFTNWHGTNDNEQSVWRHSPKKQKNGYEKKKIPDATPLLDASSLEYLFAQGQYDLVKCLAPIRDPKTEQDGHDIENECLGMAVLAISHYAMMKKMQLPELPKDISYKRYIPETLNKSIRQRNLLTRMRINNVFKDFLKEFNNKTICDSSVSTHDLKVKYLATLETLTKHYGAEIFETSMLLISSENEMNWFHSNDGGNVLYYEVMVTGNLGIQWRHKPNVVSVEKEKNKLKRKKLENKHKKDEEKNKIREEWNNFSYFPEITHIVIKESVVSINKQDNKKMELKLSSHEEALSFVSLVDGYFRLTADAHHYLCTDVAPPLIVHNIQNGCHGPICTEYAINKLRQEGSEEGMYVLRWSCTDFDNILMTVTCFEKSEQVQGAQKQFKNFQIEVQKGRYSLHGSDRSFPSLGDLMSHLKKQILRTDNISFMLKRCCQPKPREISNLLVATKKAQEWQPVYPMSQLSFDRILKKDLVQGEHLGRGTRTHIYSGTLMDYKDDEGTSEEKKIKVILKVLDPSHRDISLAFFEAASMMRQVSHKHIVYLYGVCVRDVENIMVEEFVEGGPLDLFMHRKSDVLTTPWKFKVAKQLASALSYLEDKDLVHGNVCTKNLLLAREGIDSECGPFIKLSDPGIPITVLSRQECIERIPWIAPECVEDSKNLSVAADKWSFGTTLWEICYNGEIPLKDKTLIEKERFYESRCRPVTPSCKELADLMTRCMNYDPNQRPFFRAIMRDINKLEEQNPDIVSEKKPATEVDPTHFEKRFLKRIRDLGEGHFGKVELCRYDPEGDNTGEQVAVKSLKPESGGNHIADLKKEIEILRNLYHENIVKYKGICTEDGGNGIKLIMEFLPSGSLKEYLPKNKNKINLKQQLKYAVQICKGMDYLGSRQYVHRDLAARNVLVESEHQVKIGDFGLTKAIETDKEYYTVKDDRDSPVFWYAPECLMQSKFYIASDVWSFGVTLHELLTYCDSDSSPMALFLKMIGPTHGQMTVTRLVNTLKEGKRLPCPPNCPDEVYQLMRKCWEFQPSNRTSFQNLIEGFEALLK
Assay: pSTAT3 cell assay (MSD; TF1 cells, 30 ng/mL IL-6 stimulation)
Conditions: 30 ng/mL IL-6, 15 minutes
Structures can show the parent of a compound that is named as a salt.

Retrieve IC50 measured for C[C@@H]1CN(c2nc(-c3cnc4[nH]ccc4c3)cn3nccc23)C(=O)[C@]1(C#N)C1CC1 [Example 230] and print it. 0.1 to 1 µM

Give me measured IC50, please, for this compound: CC(C)n1cc(-c2cc3c(N4C[C@@H](C)[C@@](C#N)(C5CC5)C4=O)ccnn3c2)cn1 [Example 167] 0.1 to 1 µM

Note IC50 for the compound shown: C[C@@H]1CN(c2cc(-c3cnn(C4COC4)c3)cc3ncsc23)C(=O)[C@]1(C#N)C1CC1 [Example 348] 0.1 to 1 µM

Please look at this compound and report its IC50: C[C@@H]1CN(c2ccnn3cc(-c4cnn([C@H]5COCC(F)(F)C5)c4)cc23)C(=O)[C@]1(C#N)C1CC1 (single isomer, unassigned) [Example 327] 1 to 5 µM

Return IC50 (reported value) for this compound: CO[C@H]1C[C@H](n2cc(-c3cc4ncsc4c(N4C[C@@H](C)[C@@](C#N)(C5CC5)C4=O)n3)cn2)C1 [Example 355] < 0.1 µM

Determine from records and report IC50 for COc1cc(-c2cc3c(N4C[C@@H](C)[C@@](C#N)(C5CC5)C4=O)ccnn3c2)ccn1 [Example 65] 1 to 5 µM

# return recorded IC50 for input CC[C@@H]1CN(c2ccnn3cc(-c4cnn(C)c4)cc23)C(=O)[C@]1(C#N)C1CC1 [Example 23] 1 to 5 µM

Give reported IC50 value for C[C@@H]1CN(c2nc(-c3cnn(C4CCCC4)c3)cn3ncc(F)c23)C(=O)[C@]1(C#N)C1CC1 [Example 217] 0.1 to 1 µM

Recall and state the measured IC50 for C[C@@H]1CN(c2ccnc3cc(-c4cnn(C56CC(C5)C6)c4)oc23)C(=O)[C@]1(C#N)C1CC1 [Example 344] . 0.1 to 1 µM

Given the compound C[C@@H]1CN(c2nc(-c3cnn(C4CCOCC4)c3)cn3nccc23)C(=O)[C@]1(C#N)C1CC1 [Example 203] , write its reported IC50. 0.1 to 1 µM

Specify IC50 for C[C@@H]1CN(c2ccnn3cc(-c4cnn(C5CCN(C)CC5)c4)cc23)C(=O)[C@]1(C#N)C1CC1 [Example 331] and stop. 1 to 5 µM

Answer with reported IC50 of C[C@@H]1CN(c2ccnn3cc(-c4ccc(N(C)C)cn4)cc23)C(=O)[C@]1(C#N)C1CC1 [Example 134, trifluoroacetate] 1 to 5 µM

For the compound C[C@@H]1CN(c2ccnn3cc(-c4cnn(CC5(C#N)CC5)c4)cc23)C(=O)[C@]1(C#N)C1CC1 [Example 324] , give its measured IC50 value. 0.1 to 1 µM

In one line, give reported IC50 of the entry C[C@@H]1CN(c2ccnn3cc(-c4ccc(=O)n(C)c4)cc23)C(=O)[C@]1(C#N)C1CC1 [Example 83] . 1 to 5 µM
